Molecular target: RNF31 PUB domain (Homo sapiens, UniProt Q96EP0)
Construct: MBP-TEV (N, cleaved yes); made in house; host or cells: E. coli BL21 (DE3) pLysS
Sequence (Q96EP0 1-179): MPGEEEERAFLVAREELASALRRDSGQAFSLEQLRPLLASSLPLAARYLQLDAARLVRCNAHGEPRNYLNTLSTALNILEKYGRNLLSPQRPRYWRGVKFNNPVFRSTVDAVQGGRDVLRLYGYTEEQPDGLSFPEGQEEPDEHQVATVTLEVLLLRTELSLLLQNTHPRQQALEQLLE
Assay: Phage Library Screening with NGS, RNF31 PUB domain
Assay type: binding
Settings: RNF31 PUB domain clusters C41-C45; target concentration 30
Bridge positions count the residues as written; N and C are the ends. Ends that are not written are not given here.
READOUT LABEL: Phage library screen NGS readout, Target Concentration 30

BIOSEQUENCE: DPAWMDCLYAAYDCQHM
MEASURED TARGET: RNF31 PUB domain (Homo sapiens, UniProt Q96EP0)
RECORDED NUMBER: 2
--
BIOSEQUENCE: DPAWWNCLYAADECWSW
MEASURED TARGET: RNF31 PUB domain (Homo sapiens, UniProt Q96EP0)
RECORDED NUMBER: 0
--
BIOSEQUENCE: DPARDWCLYAAYDCYTA (Ac-DPARDWCLYAAYDCYTA-NH2; not fully specified (bridges); cysteine pairing not given here)
MEASURED TARGET: RNF31 PUB domain (Homo sapiens, UniProt Q96EP0)
RECORDED NUMBER: 0
--
BIOSEQUENCE: DPAWWNCLYAANTCVED
MEASURED TARGET: RNF31 PUB domain (Homo sapiens, UniProt Q96EP0)
RECORDED NUMBER: 1
--
BIOSEQUENCE: DPAFTDCQLAAAVCMTY
MEASURED TARGET: RNF31 PUB domain (Homo sapiens, UniProt Q96EP0)
RECORDED NUMBER: 0
--
BIOSEQUENCE: DPAIWECVSAAAVCMTY
MEASURED TARGET: RNF31 PUB domain (Homo sapiens, UniProt Q96EP0)
RECORDED NUMBER: 0
--
BIOSEQUENCE: DPAMIDCFLAAQVCATY (not fully specified; cysteine pairing not given here)
MEASURED TARGET: RNF31 PUB domain (Homo sapiens, UniProt Q96EP0)
RECORDED NUMBER: 0
--
BIOSEQUENCE: DPALDYCLYAAYDCMYA
MEASURED TARGET: RNF31 PUB domain (Homo sapiens, UniProt Q96EP0)
RECORDED NUMBER: 0
--
BIOSEQUENCE: DPAIVQCAWAALYCDMQ (Ac-DPAIVQCAWAALYCDMQ-NH2; bridge 7-14; also: Cys-Cys staple, linker not named)
MEASURED TARGET: RNF31 PUB domain (Homo sapiens, UniProt Q96EP0)
RECORDED NUMBER: 0
--
BIOSEQUENCE: DPAEWDCLYAAFDCFAN
MEASURED TARGET: RNF31 PUB domain (Homo sapiens, UniProt Q96EP0)
RECORDED NUMBER: 2
--
BIOSEQUENCE: DPAWTQCDWAALYCEDQ
MEASURED TARGET: RNF31 PUB domain (Homo sapiens, UniProt Q96EP0)
RECORDED NUMBER: 1
--
BIOSEQUENCE: DPAIAQCMLAAQVCSTY
MEASURED TARGET: RNF31 PUB domain (Homo sapiens, UniProt Q96EP0)
RECORDED NUMBER: 0
--
BIOSEQUENCE: DPATEACFDAAIECTYY
MEASURED TARGET: RNF31 PUB domain (Homo sapiens, UniProt Q96EP0)
RECORDED NUMBER: 0
--
BIOSEQUENCE: DPAEQFCLYAAYDCYSE
MEASURED TARGET: RNF31 PUB domain (Homo sapiens, UniProt Q96EP0)
RECORDED NUMBER: 0
--
BIOSEQUENCE: DPAYWHCLYAAASCDDI
MEASURED TARGET: RNF31 PUB domain (Homo sapiens, UniProt Q96EP0)
RECORDED NUMBER: 0
--
BIOSEQUENCE: DPAQYQCWNAAMSCSYS
MEASURED TARGET: RNF31 PUB domain (Homo sapiens, UniProt Q96EP0)
RECORDED NUMBER: 1
--
BIOSEQUENCE: DPAIQECYLAAQVCTTY
MEASURED TARGET: RNF31 PUB domain (Homo sapiens, UniProt Q96EP0)
RECORDED NUMBER: 0
--
BIOSEQUENCE: DPAFMDCVFAAAVCATY
MEASURED TARGET: RNF31 PUB domain (Homo sapiens, UniProt Q96EP0)
RECORDED NUMBER: 0
--
BIOSEQUENCE: DPAQEACWDAAIMCTYR
MEASURED TARGET: RNF31 PUB domain (Homo sapiens, UniProt Q96EP0)
RECORDED NUMBER: 0
--
BIOSEQUENCE: DPAMEWCWDAAVFCTYS
MEASURED TARGET: RNF31 PUB domain (Homo sapiens, UniProt Q96EP0)
RECORDED NUMBER: 1
--
BIOSEQUENCE: DPAYDYCLYAAQDCVWW
MEASURED TARGET: RNF31 PUB domain (Homo sapiens, UniProt Q96EP0)
RECORDED NUMBER: 0
--
BIOSEQUENCE: DPAYDWCLYAAYQCDQN
MEASURED TARGET: RNF31 PUB domain (Homo sapiens, UniProt Q96EP0)
RECORDED NUMBER: 0
--
BIOSEQUENCE: DPAFWACLYAAEECVVD
MEASURED TARGET: RNF31 PUB domain (Homo sapiens, UniProt Q96EP0)
RECORDED NUMBER: 0
--
BIOSEQUENCE: DPARRECWDAAILCTYY
MEASURED TARGET: RNF31 PUB domain (Homo sapiens, UniProt Q96EP0)
RECORDED NUMBER: 0
--
BIOSEQUENCE: DPALEDCQWAALYCDEY
MEASURED TARGET: RNF31 PUB domain (Homo sapiens, UniProt Q96EP0)
RECORDED NUMBER: 0
--
BIOSEQUENCE: DPAHTWCMYAAFDCFES
MEASURED TARGET: RNF31 PUB domain (Homo sapiens, UniProt Q96EP0)
RECORDED NUMBER: 0
--
BIOSEQUENCE: DPAWNDCLYAAETCISW
MEASURED TARGET: RNF31 PUB domain (Homo sapiens, UniProt Q96EP0)
RECORDED NUMBER: 1
--
BIOSEQUENCE: DPAYDWCMYAAHECVDQ
MEASURED TARGET: RNF31 PUB domain (Homo sapiens, UniProt Q96EP0)
RECORDED NUMBER: 0
--
BIOSEQUENCE: DPALWDCLYAADACITS (not fully specified; cysteine pairing not given here)
MEASURED TARGET: RNF31 PUB domain (Homo sapiens, UniProt Q96EP0)
RECORDED NUMBER: 1
--
BIOSEQUENCE: DPAQDWCMYAAYECDAH
MEASURED TARGET: RNF31 PUB domain (Homo sapiens, UniProt Q96EP0)
RECORDED NUMBER: 0
--
BIOSEQUENCE: DPAYEDCADAAMYCDMD
MEASURED TARGET: RNF31 PUB domain (Homo sapiens, UniProt Q96EP0)
RECORDED NUMBER: 0

---

target: FBXW7-SKP1 (Homo sapiens, UniProt Q969H0); construct: FBXW7 (Uniprot ID: Q969H0, residues 263-706) with an N-terminal GST-TEV tag and C-terminal AVI tag; GST-TEV (N); made in house; host or cells: E. coli BL21 (DE3); test: Naive Library Presenter Screening (phage, NGS), FBXW7-SKP1; type: binding; conditions: FBXW7 target concentration 300 nM
Sequence (Q969H0 263-706): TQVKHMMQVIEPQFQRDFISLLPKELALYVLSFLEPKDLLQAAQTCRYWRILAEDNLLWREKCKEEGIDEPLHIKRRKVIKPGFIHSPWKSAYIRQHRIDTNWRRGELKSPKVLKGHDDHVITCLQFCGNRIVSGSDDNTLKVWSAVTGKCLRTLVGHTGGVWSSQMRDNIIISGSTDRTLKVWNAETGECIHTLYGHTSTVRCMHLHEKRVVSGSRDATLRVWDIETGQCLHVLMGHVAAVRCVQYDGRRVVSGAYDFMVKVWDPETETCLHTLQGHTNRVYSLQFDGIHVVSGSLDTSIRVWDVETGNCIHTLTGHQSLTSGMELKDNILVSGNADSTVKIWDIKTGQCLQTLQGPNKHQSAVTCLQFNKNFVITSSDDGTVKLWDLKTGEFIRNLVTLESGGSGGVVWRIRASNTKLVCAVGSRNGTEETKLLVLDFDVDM
Sequence (P63208 whole entry partner, the tested form may be a part): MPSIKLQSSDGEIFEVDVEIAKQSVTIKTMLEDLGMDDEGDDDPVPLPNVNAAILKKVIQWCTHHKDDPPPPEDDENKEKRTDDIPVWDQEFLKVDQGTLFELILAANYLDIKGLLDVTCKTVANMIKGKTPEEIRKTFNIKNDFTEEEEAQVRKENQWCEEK
Numbered stars: 1 amine (or outer) side, 2 acyl side, 3 side chain; on linkers, the order of the positions; unused ones are H or OH. Bridge positions count the residues as written; N and C are the ends. Ends that are not written are not given here. Phenylene(1,4-NHCOCH2)2 = O=C(C[*:1])Nc1ccc(NC(=O)C[*:2])cc1
READOUT LABEL: interaction data at Target Concentration 300

BIOSEQUENCE: DPAAFFCDDAAERCEFW
RECORDED NUMBER: 163
//
BIOSEQUENCE: DPAFWYCDEAAEMCEFW
RECORDED NUMBER: 28
//
BIOSEQUENCE: DPANIACDDAALLCAFW
RECORDED NUMBER: 7
//
BIOSEQUENCE: DPATYFCYDAAELCDWW
RECORDED NUMBER: 5
//
BIOSEQUENCE: DPAITTCLDAAELCDFW
RECORDED NUMBER: 34
//
BIOSEQUENCE: DPANIACDDAALLCEFW
RECORDED NUMBER: 946
//
BIOSEQUENCE: DPANWVCMDAAELCDFY (DPANWVCMDAAELCDFY-NH2; linker 7-14 via Phenylene(1,4-NHCOCH2)2 (inferred))
RECORDED NUMBER: 2

Where do these numbers come from? They come from patent US20240376151A1.
